- test system: Gonadotropin-releasing hormone receptor (Rattus norvegicus) (UniProt P30969)
- Sequence (P30969 whole entry): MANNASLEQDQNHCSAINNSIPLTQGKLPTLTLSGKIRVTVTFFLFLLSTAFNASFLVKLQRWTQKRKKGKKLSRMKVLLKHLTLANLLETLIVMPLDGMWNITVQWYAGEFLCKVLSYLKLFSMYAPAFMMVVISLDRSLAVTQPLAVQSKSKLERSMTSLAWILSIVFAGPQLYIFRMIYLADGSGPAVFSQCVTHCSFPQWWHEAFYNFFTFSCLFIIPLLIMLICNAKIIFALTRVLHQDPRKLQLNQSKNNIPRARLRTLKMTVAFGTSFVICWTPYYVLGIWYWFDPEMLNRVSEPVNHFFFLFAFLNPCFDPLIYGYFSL
- test details: In vitro antagonistic activity against LH release in rat pituitary cells for control.
- Format: functional, cell-based
- conditions used: Pituitary gland cell
Square brackets hold non-standard residues; d marks the D form. Peptide text beside a SMILES is read from it. 2Nal = N[C@@H](Cc1ccc2ccccc2c1)C(=O)O
Catalogue of compounds with associated Activity

{"compound": "CC(=O)NC(Cc1ccc2ccccc2c1)C(=O)N[C@@H](CO)C(=O)N[C@@H](Cc1ccc(O)cc1)C(=O)NC(Cc1ccc2ccccc2c1)C(=O)N[C@@H](CC(C)C)C(=O)N[C@@H](CCCCNC(C)C)C(=O)N1CCC[C@H]1C(=O)N[C@H](C)C(N)=O (stereo in doubt)", "test system": "Gonadotropin-releasing hormone receptor (Rattus norvegicus) (UniProt P30969)", "Activity": 2.1}
{"compound": "CC(=O)NC(Cc1ccc2ccccc2c1)C(=O)N[C@@H](CO)C(=O)N[C@@H](Cc1ccc(O)cc1)C(=O)NC(Cc1ccc2ccccc2c1)C(=O)N[C@@H](CC(C)C)C(=O)N[C@@H](CCCN=C(N)N)C(=O)N1CCC[C@H]1C(=O)N[C@H](C)C(N)=O (stereo in doubt)", "test system": "Gonadotropin-releasing hormone receptor (Rattus norvegicus) (UniProt P30969)", "Activity": 5.3}
{"compound": "CC(=O)N[C@H](Cc1ccc2ccccc2c1)C(=O)N[C@@H](CO)C(=O)N[C@@H](CCCCNC(=O)c1ccccn1)C(=O)N[C@H](CCCCNC(=O)c1ccccn1)C(=O)N[C@@H](CC(C)C)C(=O)N[C@@H](CCCN=C(N)N)C(=O)N1CCC[C@H]1C(=O)N[C@H](C)C(N)=O", "test system": "Gonadotropin-releasing hormone receptor (Rattus norvegicus) (UniProt P30969)", "Activity": 7.2}
{"compound": "CC(=O)N[C@@H](Cc1ccc2ccccc2c1)C(=O)N[C@@H](CC(C)C)C(=O)N[C@@H](CCCN=C(N)N)C(=O)N[C@@H](C)C(N)=O (Ac-[2Nal]LRA-NH2)", "test system": "Gonadotropin-releasing hormone receptor (Rattus norvegicus) (UniProt P30969)", "Activity": 3.5}

Where do these numbers come from? They come from ChEMBL document CHEMBL1128487.
